All values here come from ChEMBL document CHEMBL1139761.

Each entry below carries its measured Ki, system: Muscarinic acetylcholine receptor M2 (Rattus norvegicus).
Sequence (P10980 whole entry): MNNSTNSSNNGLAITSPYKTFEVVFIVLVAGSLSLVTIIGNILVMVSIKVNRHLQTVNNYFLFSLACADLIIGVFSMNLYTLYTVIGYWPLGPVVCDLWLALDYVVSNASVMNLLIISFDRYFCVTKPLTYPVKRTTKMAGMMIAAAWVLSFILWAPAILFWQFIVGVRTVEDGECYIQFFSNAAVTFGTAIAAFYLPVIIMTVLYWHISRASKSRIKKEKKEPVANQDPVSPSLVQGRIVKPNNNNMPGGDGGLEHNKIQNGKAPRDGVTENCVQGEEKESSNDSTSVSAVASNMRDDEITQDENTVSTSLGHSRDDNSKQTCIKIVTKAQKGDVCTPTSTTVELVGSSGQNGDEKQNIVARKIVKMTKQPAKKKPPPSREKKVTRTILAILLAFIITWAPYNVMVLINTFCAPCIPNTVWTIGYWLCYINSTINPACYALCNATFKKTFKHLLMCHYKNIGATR
Write down the value, and be sure its unit follows.

Known Ki results, listed for orientation:
O=C(N[C@H]1[C@@H]2CN(Cc3ccccc3)C[C@@H]21)C(O)(c1ccccc1)C1CCCCC1 (stereo not given in full)	943 nM
O=C(N[C@H]1[C@@H]2CN(Cc3ccc4ccccc4c3)C[C@@H]21)C(O)(c1ccccc1)C1CCCC1 (stereo not given in full)	778 nM
Cc1ccc(C(C)N2C[C@@H]3[C@H](C2)[C@H]3NC(=O)C(O)(c2ccccc2)C2CCCC2)cc1 (stereo not given in full)	1230 nM
Cc1ccc(CCN2C[C@@H]3[C@H](C2)[C@H]3NC(=O)C(O)(c2ccccc2)C2CCCC2)cc1C (stereo not given in full)	812 nM

# next compound below
input: What measured Ki is associated with O=C(N[C@H]1[C@@H]2CN(Cc3ccccc3)C[C@@H]21)C(O)(c1ccccc1)C1CCCC1 (stereo not given in full) on Muscarinic acetylcholine receptor M2 (Rattus norvegicus)?
output: 1420 nM
